Give log10(MIC) for every item shown.
system: Staphylococcus aureus; test: Minimum inhibitory concentration against methicillin resistant Staphylococcus aureus (strain A27223) in presence of 50% calf serum; format: functional
Form field - Quantity: MIC; Unit: µg/mL; Scale: log10

Data request: GET log10(MIC) where system = Staphylococcus aureus and item = `CSc1ccc(-c2cn(CNC(C)=O)oc2=O)cc1`
Data returned: 0.90

Data request: GET log10(MIC) where system = Staphylococcus aureus and item = `CC(=O)NCn1cc(-c2ccc(-c3ccccc3)cc2)c(=O)o1`
Data returned: 1.81

Data request: GET log10(MIC) where system = Staphylococcus aureus and item = `CC(=O)NCn1cc(-c2cccc(C(F)(F)F)c2)c(=O)o1`
Data returned: 1.81

Data request: GET log10(MIC) where system = Staphylococcus aureus and item = `CC(=O)NCn1cc(-c2cccc(Cl)c2)c(=O)o1`
Data returned: 1.20

Data request: GET log10(MIC) where system = Staphylococcus aureus and item = `CC(=O)NCn1cc(-c2ccc3c(c2)OCO3)c(=O)o1`
Data returned: 0.60

Data request: GET log10(MIC) where system = Staphylococcus aureus and item = `CC(=O)NCn1cc(-c2ccccc2)c(=O)o1`
Data returned: 0.90

Data request: GET log10(MIC) where system = Staphylococcus aureus and item = `COc1ccc(-c2cn(CNC(C)=O)oc2=O)cc1`
Data returned: 0.60

Data request: GET log10(MIC) where system = Staphylococcus aureus and item = `CC(=O)NC[C@H]1CN(c2ccc(N3CCOCC3)c(F)c2)C(=O)O1`
Data returned: 0.00
